Species: Rattus norvegicus
Test: DrugMatrix - Regimen: Daily Repeat
Type: toxicity, organism-based, Sprague-Dawley
Parameters: regimen Daily Repeat, gender Male, age 6-8 weeks
Details: in vivo, iv, 0 mg/kg, 120 h, tissue Blood, dose level Control, time 5 day, vehicle 100 % SALINE
Please go through the items and note down their PLATELET COUNT.
Answer format: numeric, x10E3/uL implied, no suffix.

Q: Please give measured PLATELET COUNT of the following entry: CCc1c2c(nc3ccc(OC(=O)N4CCC(N5CCCCC5)CC4)cc13)-c1cc3c(c(=O)n1C2)COC(=O)[C@]3(O)CC [IRINOTECAN]
Ans: 1219.5

Q: Please give measured PLATELET COUNT of the following entry: CCC1=C[C@@H]2CN(C1)Cc1c([nH]c3ccccc13)[C@@](C(=O)OC)(c1cc3c(cc1OC)N(C)[C@H]1[C@@](O)(C(=O)OC)[C@H](OC(C)=O)[C@]4(CC)C=CCN5CC[C@]31[C@@H]54)C2 [VINORELBINE]
Ans: 1076.5

Q: Please give measured PLATELET COUNT of the following entry: CC[C@]1(O)C[C@@H]2CN(CCc3c([nH]c4ccccc34)[C@@](C(=O)OC)(c3cc4c(cc3OC)N(C)[C@H]3[C@@](O)(C(=O)OC)[C@H](OC(C)=O)[C@]5(CC)C=CCN6CC[C@]43[C@@H]65)C2)C1 [VINBLASTINE]
Ans: 1170.5

Q: Please give measured PLATELET COUNT of the following entry: CC(=O)N[C@@H]1[C@H](Oc2c3cc4cc2Oc2ccc(cc2Cl)[C@@H](O[C@@H]2O[C@@H](CO)[C@@H](O)[C@H](O)[C@@H]2NC(C)=O)[C@@H]2NC(=O)[C@H](NC(=O)[C@@H]4NC(=O)[C@H]4NC(=O)[C@@H](Cc5ccc(c(Cl)c5)O3)NC(=O)[C@H](N)c3ccc(O)c(c3)Oc3cc(O)cc4c3)c3ccc(O)c(c3)-c3c(O[C@H]4O[C@H](CO)[C@@H](O)[C@@H](O)[C@@H]4O)cc(O)cc3[C@@H](C(=O)O)NC2=O)O[C@@H](CO)[C@@H](O)[C@@H]1O
Ans: 1352.5
